test: Pharmacokinetics and biodistribution in C26 tumor-bearing BALB/c mice; type: in vivo; conditions: female, BALB/c, mouse, plasma, iv; tumor-bearing mice, 18 mg/kg i.v.; read-out: Vss (ml), volume of distribution
parameter-measured: Vd

INSERT INTO results (structure_as_smiles, parameter_measured, meas_value) VALUES
  ('CC1(C)CC(N)CC(C)(C)N1[O]', 'Vd', '55 mL');

----------
assay: Pharmacokinetics and biodistribution in C26 tumor-bearing BALB/c mice; format: in vivo; settings: female, BALB/c, mouse, plasma, iv; tumor-bearing mice, 18 mg/kg i.v.; read-out: T1/2 (h), blood circulation half-life (converted)
parameter-measured: half-life (h)

INSERT INTO measurements (structure_as_smiles, parameter_measured, unit_text, meas_value) VALUES
  ('CC1(C)CC(N)CC(C)(C)N1[O]', 'half-life', 'h', 0.15);
